assay: ST_JUDE: Cytotoxicity using luciferase to measure ATP as an indicator of the viability of human Burkitt''s lymphoma lymphoblast cells (Raji); assay type: toxicity, cell-based
readoutLabel: EC50

Example entries begin here.
1) CCOC(=O)C1(Cc2cccc(C(F)(F)F)c2)CCN(Cc2ccccc2O)CC1    > 41.3 µM
2) COc1ccc(O)c(CN2CCN(c3cc(C)ccc3C)CC2)c1    > 35.5 µM
3) C/C=C/c1n(C)c2ccccc2[n+]1C    > 40.2 µM
4) CCN1CCN(Cc2c(O)ccc3c(=O)c(Oc4ccccc4C(C)C)c(C(F)(F)F)oc23)CC1    > 23.3 µM
5) COc1ccc(C2CC(=O)C3=C(C2)NC(=O)CC3c2ccc(C(F)(F)F)cc2)cc1OC (centres undefined)    > 47.5 µM
6) C=CCN1C=CC=C/C1=C\c1sc2ccccc2[n+]1C    8.34 µM

In: Any idea what EC50 was measured for COCCO/C(O)=C1\C(C)=NC2=C(C(=O)CC(c3ccc(OC)c(OC)c3)C2)C1c1ccc(F)cc1 (centres undefined) ?
Out: > 42.4 µM

In: Any idea what EC50 was measured for Cc1cccc(N2CCN(Cc3ccccc3O)CC2)c1C ?
Out: > 32.7 µM

In: Any idea what EC50 was measured for COc1ccccc1Cn1ccnc1SCC(=O)Nc1cc(C(F)(F)F)ccc1Cl ?
Out: > 39.1 µM

In: Any idea what EC50 was measured for CC(O)(c1ccc(Cl)cc1)C(CN1CCCCC1)c1ccccc1 (centres undefined) ?
Out: > 50.6 µM

In: Any idea what EC50 was measured for CCn1nc(-c2ccc(C(F)(F)F)cc2)nc2c(=O)n(C)c(=O)nc1-2 ?
Out: > 50.1 µM

In: Any idea what EC50 was measured for CCN(C(C)=O)C1=C(N2CCOCC2)C(=O)c2ccccc2C1=O ?
Out: 2.73 µM

In: Any idea what EC50 was measured for Cc1ccc(N2C(N)=NC(N)=NC2(C)C)cc1 ?
Out: > 34.9 µM

In: Any idea what EC50 was measured for CCOc1cc2c(cc1OCC)C(c1cc(Cl)ccc1O)NCC2 (centres undefined) ?
Out: > 46.9 µM

* * *

system: Plasmodium falciparum; experiment: ST_JUDE: Plasmodium falciparum 3D7 EC50 (uM) as measured by SYBR green dye; format: functional, organism-based
pEC50: recorded values
Remember the convention: pEC50 equals -log10 of concentration in molar.

1) O=C(N1CCCC1)C12CC3CC(CC(C3)C1)C2    5.09
2) Cc1cc(N(C)C)nc(Nc2ccc(NS(=O)(=O)c3cccc(Cl)c3)cc2)n1    5.11
3) Cc1cc(Nc2ccc(Br)c(C)c2)n2nc(C)nc2n1    6.78
4) CCOc1cc(C2C3=C(O)CC(c4ccc(Cl)cc4)CC3=NC(C)=C2C(=O)OC(C)C)ccc1O (configuration not stated)    5.81
5) CC(C)CN1C(=O)c2ccccc2C(C(=O)Nc2ccc(F)c(Cl)c2)C1c1cccs1 (configuration not stated)    7.05

In: Give pEC50 (Plasmodium falciparum) of the following compound: CCc1ccc(C(O)(CCC(C)C)C(CN2CCOCC2)c2ccccc2)cc1 (configuration not stated)
Out: 5.61

* * *

assay: ST_JUDE: Cytotoxicity using luciferase to measure ATP as an indicator of the viability of human epithelial hepatocellular carcinoma cells (HepG2); format: toxicity, cell-based
EC50: recorded values

1. CCCO/C(O)=C1\C(C)=NC2=C(C(=O)CC(c3ccc(OC)c(OC)c3)C2)C1c1ccc(F)cc1 (configuration not stated)    > 36.3 µM

In: Any idea what EC50 was measured for CCCn1c2c(c(=N)c3c1CCC3)CCCC2 ?
Out: > 40.3 µM

In: Any idea what EC50 was measured for CC(C)CN1C(=O)c2ccccc2C(C(=O)Nc2cccc(C(F)(F)F)c2)C1c1cccs1 (configuration not stated) ?
Out: 37.7 µM

In: Any idea what EC50 was measured for Cc1ccc(C)c(NC(=O)CC2C(=O)N(c3ccccc3)C(=S)N2Cc2ccco2)c1 (configuration not stated) ?
Out: > 44.1 µM

In: Any idea what EC50 was measured for CCOc1cc(C2CC(=O)NC3=C2C(=O)CC(c2ccc(OC)cc2)C3)cc(Cl)c1O (configuration not stated) ?
Out: > 44.4 µM

* * *

tested on: Plasmodium falciparum; assay: ST_JUDE: Plasmodium falciparum 3D7 EC50 (uM) as measured by SYBR green dye; assay type: functional, organism-based
EC50: recorded values

Example entries begin here.
1. CCOC(=O)c1ccc(Nc2nc3nonc3nc2NCc2ccco2)cc1    > 15 µM
2. O=C(O)c1cccc(NC2=C(n3nnc4ccccc43)C(=O)c3ccccc3C2=O)c1    > 15 µM
3. CCCCc1ccc2nc(C)c(CN3CCC(C)CC3)c(O)c2c1    > 15 µM

In: Any idea what EC50 was measured for Cc1ccc(/C(O)=C/C=N/c2cc([N+](=O)[O-])ccc2O)cc1 ?
Out: > 15 µM

In: Any idea what EC50 was measured for O=C(c1cccc(Cl)c1)N(Cc1cccnc1)c1nc2c(F)cccc2s1 ?
Out: > 15 µM

* * *

experiment: ST_JUDE: Cytotoxicity using luciferase to measure ATP as an indicator of the viability of human Burkitt''s lymphoma lymphoblast cells (Raji); format: toxicity, cell-based
EC50: recorded values

1) COc1ccc(C2CC3=NC(C)=C(C(=O)OC(C)C)C(c4ccccc4Cl)C3=C(O)C2)cc1OC (stereo not drawn)    > 41.2 µM
2) COc1ccc(C2CC(=O)C3=C(C2)NC(=O)CC3c2ccc(OC)c(OC)c2)cc1 (stereo not drawn)    > 45.4 µM

Now examine the next entry.
In: Any idea what EC50 was measured for CN1C(=O)/C(=C\c2ccccc2Cl)Sc2ccc(C(=O)NC3CCN(Cc4ccccc4)CC3)cc21 ?
Out: > 42.5 µM

* * *

assay: ST_JUDE: Cytotoxicity using luciferase to measure ATP as an indicator of the viability of human epithelial hepatocellular carcinoma cells (HepG2); type: toxicity, cell-based
pEC50: −log10 of the molar value.
pEC50: recorded values

Example entries begin here.
1. CN1C(=O)/C(=C\c2ccccc2Cl)Sc2ccc(C(=O)NC3CCN(Cc4ccccc4)CC3)cc21    4.75
2. CC[n+]1ccccc1C=Cc1ccc(N(C)C)cc1    < 4.34
3. COc1ccc2c(c1)N(C)/C(=C/c1cccc[n+]1C)S2    < 4.80
4. Cc1c2[nH]c3ccccc3c2c2c([n+]1C)CC(C)(C)CC2    < 4.26
5. Cc1ccc(C(O)(CNCc2ccccc2)c2ccc(Br)cc2)cc1 (stereo unspecified)    4.70

In: Any idea what pEC50 was measured for CCO/C(O)=C1\C(C)=NC2=C(C(=O)CC(c3ccc(OC)c(OC)c3)C2)C1c1ccc([N+](=O)[O-])cc1 (stereo unspecified) ?
Out: < 4.36

In: Any idea what pEC50 was measured for CCOC(=O)C1=C(C)N=c2s/c(=C/c3ccccc3O)c(=O)n2C1c1ccccc1 (stereo unspecified) ?
Out: < 4.44

In: Any idea what pEC50 was measured for C/C=C/c1n(C)c2ccccc2[n+]1C ?
Out: < 4.40

* * *

test system: Plasmodium falciparum; test: ST_JUDE: Plasmodium falciparum K1 EC50 (uM) as measured by SYBR green dye; type: functional, organism-based
pEC50: −log10 of the molar value.
readoutLabel: pEC50

1. Cc1ccc(CN2CCN(Cc3ccc(OCCO)cc3)CC2CCO)o1 (stereo not drawn)    < 4.82
2. CCc1ccccc1NC(=O)c1csc2c1CCC(C)C2 (stereo not drawn)    < 4.82
3. COc1ccc(NC(=O)Cn2ncc3c(=O)oc4ccc(C)cc4c32)cc1    < 4.82
4. CCCCCOCC1CC2(CC(C)(c3csc(Nc4ccccc4Cl)n3)OC2=O)C(=O)O1 (stereo not drawn)    < 4.82

In: Any idea what pEC50 was measured for CC(C)(C)c1ccc(C(=O)Nc2cccc(NC(=O)c3cccs3)c2)cc1 ?
Out: < 4.82

In: Any idea what pEC50 was measured for CN1CCN(c2ccc(-c3cccc(NC(=O)c4cccc(F)c4)c3)nn2)CC1 ?
Out: < 4.82

In: Any idea what pEC50 was measured for Cc1cc(NC(=O)CSc2ccc3nnc(-c4ccc(Cl)cc4)n3n2)no1 ?
Out: < 4.82

In: Any idea what pEC50 was measured for COc1ccc(N(CC(=O)Nc2cccc(C(F)(F)F)c2)S(C)(=O)=O)cc1 ?
Out: < 4.82

In: Any idea what pEC50 was measured for CN(C)CCNc1nc(Cc2ccccc2)nc2sc3c(c12)CCCC3 ?
Out: < 4.82

In: Any idea what pEC50 was measured for CCCc1cc(O)nc(-n2nc(C)cc2NC(=O)c2cccc(C)c2)n1 ?
Out: < 4.82

In: Any idea what pEC50 was measured for N=C(N/N=C\c1ccc(F)cc1)N/N=C\c1ccc(F)cc1 ?
Out: 5.32
